Origin of values: the supplement of paper PMC10724198

system: Saccharomyces cerevisiae; assay: protein stability index of tFT-peptide fusion (C-terminal peptide) (PSI (0-1 scale)); higher = more stable (slower turnover); conditions: genetic background: doa10 deletion; temperature: 30 C
This listing pairs sequences with measured protein stability index.
measured endpoint: protein stability index

1) GHYQGVCHRRIC :: 0.18
2) VPGPSPPRFTQR :: 0.644
3) VTLLCRFFMLVF :: 0.273
4) VWACWCGWVLLM :: 0.153
5) VFCLPISAPPLH :: 0.626

###

tested on: Saccharomyces cerevisiae; experiment: protein stability index of tFT-peptide fusion in wild type (PSI (0-1 scale)); higher = more stable (slower turnover); conditions: genetic background: wild type
measured endpoint: protein stability index

1) LKILRQKMNHQP :: 0.373
2) LVVYLHCVACIN :: 0.0158
3) PDKRNHLIKLGN :: 0.617
4) AVTLPMCPLLLR :: 0.261
5) CTSCGYKFRTMN :: 0.186
6) ARWPVGLWRGAS :: 0.399
7) ARWRVGLWEGAS :: 0.675
8) LVVYASCVACIN :: 0.023
9) RSLRSLLPLYFR :: 0.469
10) GLYMCSVMCWFR :: 0.263
11) CLVSLPILLFFRA :: 0.0659
12) KKHKKGQKQLIN :: 0.335
13) KKHKKGQKQKID :: 0.547
14) CTSCGYQFRTNN :: 0.496
15) PDKRNHLIKLLF :: 0.269

###

system: Saccharomyces cerevisiae; assay: protein stability index of tFT-peptide fusion (C-terminal peptide) (PSI (0-1 scale)); higher = more stable (slower turnover); conditions: genetic background: wild type; temperature: 30 C
Property: protein stability index; scope: individual sequences
measured endpoint: protein stability index

1) EKWKINKKETVE [MOD5 C-terminal 12 aa] :: 0.71
2) CLRKSPPFVHNT [YMR084W C-terminal 12 aa] :: 0.703
3) LLPLIYLINKSL [YMR013C-A C-terminal 12 aa] :: 0.199
4) STFSKPFSTISK [VHR2 C-terminal 12 aa] :: 0.682
5) AKKKKKRIRGFG [RRN6 C-terminal 12 aa] :: 0.671
6) ELKRSGKLTRSV [TRM7 C-terminal 12 aa] :: 0.662
7) FARFITAIFHHI [MKC7 C-terminal 12 aa] :: 0.153
8) ERDGYYYLKRSS [VHT1 C-terminal 12 aa] :: 0.694

###

tested on: Saccharomyces cerevisiae; assay: protein stability index of tFT-peptide fusion in deletion strain of DAS1 (PSI (0-1 scale)); higher = more stable (slower turnover)
measured endpoint: protein stability index

1) FSTRWTFRYWVN :: 0.62
2) PDHRNHLIKLLN :: 0.589
3) VRGAVGGWHLVG :: 0.671
4) PDKRNHLIKLLA :: 0.57
5) PSLAASHWRVVG :: 0.692
6) PSLAASFWRCVG :: 0.674
7) CTSCGYKFTTNN :: 0.704
8) RLRQPLPVQFLN :: 0.593
9) KKHKKGQKQKINS :: 0.668
10) ARWRVGLWPGAS :: 0.689
11) VRGAVGGWRLVV :: 0.675
12) LVVSLSCVACIN :: 0.0593
13) LKILRQKMNHQNW :: 0.67
14) VRGAVGGPRLVG :: 0.669
15) ARWTVGLWRGAS :: 0.692
16) FSMRWTFPYWVN :: 0.601
17) VRGAVGGDRLVG :: 0.68
18) LKILRQKMNHQL :: 0.67
19) FSMRWTFIYWVN :: 0.263
20) LVVYLSCLACIN :: 0.0537
21) PSLAASFWRVVGM :: 0.703
22) LVVYLSCVACING :: 0.0326
23) ARWRFGLWRGAS :: 0.698
24) NRWRVGLWRGAS :: 0.685
25) ARWRVGLWREAS :: 0.668
26) KKHKKGQGQKIN :: 0.59
27) ARWRVGLWRGKS :: 0.679
28) PDKRNSLIKLLN :: 0.723
29) RLIQELPVQFLN :: 0.616
30) VRGMVGGWRLVG :: 0.683
31) KCHKKGQKQKIN :: 0.592
32) LVVYWSCVACIN :: 0.0704
33) PSLAASFWRVSG :: 0.684
34) ARWRVGLWRGSS :: 0.686
35) KKHKKGGKQKIN :: 0.653
